Molecular target: hVEGF-A (human, UniProt P15692-4 27-191, limits assumed)
Experiment: cell-based or functional assay
assay.readout: Cellular IC50 (nM)
Return type: number; implicit unit nM.

Supply measured Cellular IC50 of GCDVMQPYWGCKQDSDCLAGCVCHWYNSCG (designed binder, also called EM63) [VEGF_CKP9.63] in your reply.
140

Assign Cellular IC50 to the following record: GCQLMQPFWGCKQDSDCLAGCVCHWYQSCG (designed binder, also called E9) [VEGF_CKP9]
11700

Using the record for GCNIMLPFWGCKQDSDCLAGCVCQYYQSCG (designed binder, also called EM54) [VEGF_CKP9.54] , state its measured Cellular IC50.
188

Please give the documented Cellular IC50 of GCDVLQPFWGCKQDSDCLAGCVCHWYQSCG (designed binder) [VEGF_CKP9.2]
270
